Cited source: patent USRE47150

Here, each record is paired with measured variant/HC_D62R data.
Molecular target: T1, human tissue factor pathway inhibitor (TFPI) (human, UniProt P10646 29-304, limits assumed)
T1 construct: bought; also called hTFPI; human TFPI
T1 sequence (looked up): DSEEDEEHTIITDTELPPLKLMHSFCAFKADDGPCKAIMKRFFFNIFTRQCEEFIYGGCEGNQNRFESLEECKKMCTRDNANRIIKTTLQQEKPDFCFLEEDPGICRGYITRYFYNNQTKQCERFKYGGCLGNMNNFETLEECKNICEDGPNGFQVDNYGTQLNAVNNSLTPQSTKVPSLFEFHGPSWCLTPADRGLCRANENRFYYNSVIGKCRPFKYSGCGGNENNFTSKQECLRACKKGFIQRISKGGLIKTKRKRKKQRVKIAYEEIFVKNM
Experiment: competitive ELISA
# unit: ratio | format: bare number

[[record]]
binder = "4B7 HC N32D+D62Q+Y112D/LC F31I+D33F+N35I+L42Q (Fab, V domains shown) VH: QVQLQQSGPGLVKPSQTLSLTCAISGDSVSSDSAAWSWIRQSPGRGLEWLGIIYKRSKWYNQYAVSVKSRITINPDTSKNQFSLQLNSVTPEDTAVYYCARWHSDKHWGFDDWGQGTLVTVSS VL: DIVMTQSPLSLPVTPGEPASISCRSSQSLVISFGITYLNWYQQKPGQSPQLLIYKGSNRASGVPDRFSGSGSGTDFTLKISRVEAEDVGVYYCQQYDSYPLTFGQGTKVEIKR"
value = 21.4


Now turn to the next binder.
Task item: May I ask what variant/HC_D62R has been recorded for 4B7 HC N32D+D62R+H107M+Y112D/LC D33R+N35T (Fab, V domains shown) VH: QVQLQQSGPGLVKPSQTLSLTCAISGDSVSSDSAAWSWIRQSPGRGLEWLGIIYKRSKWYNRYAVSVKSRITINPDTSKNQFSLQLNSVTPEDTAVYYCARWHSDKMWGFDDWGQGTLVTVSS VL: DIVMTQSPLSLPVTPGEPASISCRSSQSLVFSRGTTYLNWYLQKPGQSPQLLIYKGSNRASGVPDRFSGSGSGTDFTLKISRVEAEDVGVYYCQQYDSYPLTFGQGTKVEIKR ?
Reply: 28.2
